The measured values listed here are drawn from paper PMC9721373.

Give rVSVΔG-GFP/VSVG Hoechst (%) for every item shown.
- System: HEK293T/ACE2 cells
- condition summary: human
Counter-ions that a name gives are not always drawn.
The figure you give is taken to be in %; do not add the unit.

Input line: Lookup: rVSVΔG-GFP/VSVG Hoechst (%) / HEK293T/ACE2 cells / CN(C)CCOc1ccc(/C(=C(/CCCl)c2ccccc2)c2ccccc2)cc1 [Toremifene]
Output line: 90.44

Input line: Observed rVSVΔG-GFP/VSVG Hoechst (%) on HEK293T/ACE2 cells for O=C(c1ccc(OCCN2CCCCC2)cc1)c1c(-c2ccc(O)cc2)sc2cc(O)ccc12 [Raloxifene hydrochloride] , please.
Output line: 103.53

Input line: Please provide the recorded rVSVΔG-GFP/VSVG Hoechst (%) for Clc1ccc2c(c1)C(N1CCNCC1)=Nc1ccccc1O2 , tested on HEK293T/ACE2 cells.
Output line: 99.31

Input line: # value lookup — system HEK293T/ACE2 cells, readout rVSVΔG-GFP/VSVG Hoechst (%), item CN1CCN(CCCN2c3ccccc3Sc3ccc(C(F)(F)F)cc32)CC1 [Trifluoperazine dihydrochloride]
Output line: 97.29
